Where do these numbers come from? They come from PubChem BioAssay (NCATS).

TEST_DETAILS: HEK293 12hr Apoptosis Induction qHTS against the NCATS CANVASS Library (AID 1347361); also: potency is read from the fitted curve at half-maximal effect
CONDITION_PARAMETERS: HEK293 caspase-3/7 Caspase-Glo luminescence; series mostly up to 46.1 µM
Inconclusive results are not listed. The source made the active and inactive calls. Calls follow the shape of the dose curve; as a rule, active = well fitted activation curve with a large enough effect; inconclusive = small, poorly fitted or top-dose-only effect; inactive = flat fitted curve, though single readings scatter.
REPORTED_ENDPOINT: Potency

INSERT INTO results (compound, reported_endpoint, val) VALUES
  ('C=C(NC(=O)c1csc(-c2nc3c(cc2O)-c2nc(cs2)C(=O)NC(C(C)O)C(=O)N/C(=C(\C)O)c2nc(cs2)C(=O)NC2c4nc(cs4)C(=O)NC(COC(=O)c4c5c6c(cccc6n4O)COC(=O)[C@@H](OC4C[C@](C)(O)[C@H](N(C)C)[C@H](C)O4)C2OC5)c2nc-3cs2)n1)C(N)=O (some centres undefined)', 'Potency', 'inactive'),
  ('CN1C(=O)[C@]23SS[C@@]1(C)C(=O)N2[C@H]1Nc2ccccc2[C@]1(c1c[nH]c2ccccc12)[C@@H]3O', 'Potency', '5.26 µM (active)'),
  ('C=C(C)CC[C@H](Cc1c(O)cc(O)c2c1O[C@H](c1ccc(O)cc1O)CC2=O)C(=C)C', 'Potency', 'inactive'),
  ('C/C(=C\[C@H](C)C(=O)CCCC1CC(=O)NC(=O)C1)C(O)[C@@H](C)[C@H](O)C/C=C/CC/C=C/C(=O)O (some centres undefined)', 'Potency', 'inactive');

Data request, read-out Potency, for C=C1C(=O)O[C@H]2[C@H]1CC/C(CO)=C\CC[C@@]1(C)O[C@@H]21
23.5 µM (active)

Data request, read-out Potency, for C=C1/C=C\C(CCC)=C\c2csc(n2)C(C)NC(=O)C[C@@]2(CC(=O)O)CCC(=C)[C@H](C1)S2 (some centres undefined)
inactive

Data request, read-out Potency, for C[C@@]12CCC[C@@](C)(C(=O)O)[C@H]1CC[C@]13C[C@H]4C[C@H](O[C@@]4(C)C1)[C@H]32
inactive

Data request, read-out Potency, for O=c1cc(-c2ccc(O)c(O[C@@H]3O[C@H](CO)[C@@H](O)[C@H](O)[C@H]3O)c2)oc2cc(O[C@@H]3O[C@H](CO)[C@@H](O)[C@H](O)[C@H]3O)cc(O)c12
inactive

Data request, read-out Potency, for C=C1C[C@@]23C=CC(=O)[C@@](C)(CCC(=O)Nc4c(O)ccc(C(=O)O)c4O)C2C[C@@H]1CC3 (some centres undefined)
inactive

* * *

SYSTEM_UNDER_TEST: DNA dC->dU-editing enzyme APOBEC-3G (Homo sapiens) (UniProt Q9HC16)
Sequence (Q9HC16 whole entry, looked up): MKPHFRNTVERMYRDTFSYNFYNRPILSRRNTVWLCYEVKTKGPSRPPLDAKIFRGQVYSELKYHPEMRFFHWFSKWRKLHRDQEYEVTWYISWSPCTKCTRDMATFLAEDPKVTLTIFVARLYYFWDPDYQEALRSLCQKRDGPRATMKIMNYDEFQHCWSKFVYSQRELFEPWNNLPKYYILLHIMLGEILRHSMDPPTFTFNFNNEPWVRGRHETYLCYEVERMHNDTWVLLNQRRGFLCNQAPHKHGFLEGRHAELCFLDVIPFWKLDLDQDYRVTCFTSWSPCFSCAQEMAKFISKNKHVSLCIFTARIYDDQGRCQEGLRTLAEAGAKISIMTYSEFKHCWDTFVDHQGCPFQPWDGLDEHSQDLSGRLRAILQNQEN
TEST_DETAILS: qHTS for inhibitors of Vif-A3G interactions: Validation (AID 588379)
CONDITION_PARAMETERS: Vif-A3G protein interaction assay; series mostly up to 46.1 µM
Active and inactive are the calls of the source. Calls follow the shape of the dose curve; as a rule, active = well fitted inhibition curve with a large enough effect; inconclusive = small, poorly fitted or top-dose-only effect; inactive = flat fitted curve, though single readings scatter.
REPORTED_ENDPOINT: outcome

The examples below pair each entry with its known result.
INSERT INTO results (compound, reported_endpoint, val) VALUES
  ('O=C1C(c2ccccn2)=[N+]([O-])c2ccccc21', 'outcome', 'inactive'),
  ('CC(C)[C@H](CO)Nc1nc(Nc2cc(N)cc(Cl)c2)c2ncn(C(C)C)c2n1', 'outcome', 'inactive'),
  ('Oc1cc2c(cc1O)[C@H](c1ccccc1)CNCC2', 'outcome', 'inactive'),
  ('CCOC(=O)[C@H](N)/C=C(\C)CP(=O)(O)O', 'outcome', 'inactive'),
  ('CCNCCCNCCCCNCCCNCC', 'outcome', 'inactive');

Data request, read-out outcome, for CC[C@H](C)C(=O)O[C@H]1CCC=C2C=C[C@H](C)[C@H](CC[C@@H]3C[C@H](O)CC(=O)O3)[C@H]21
inactive

Data request, read-out outcome, for CC(C)Oc1ccc2c(=O)c3cc(C(=O)O)ccc3oc2c1
inactive

Data request, read-out outcome, for CCCCCCCCCCCCCCC[C@@H](O)[C@@H](N)CO
inactive

Data request, read-out outcome, for N[C@@H](CO)C(=O)O
inactive

Data request, read-out outcome, for CC[N+](C)(CC)CC(=O)Nc1c(C)cccc1C
inactive
